target: DT Diaphorase (Homo sapiens, UniProt P15559); construct: purchased Sigma D1315; test: in vitro DT diaphorase activated drug release assay (NADPH depletion); format: biochemical; conditions: 90 min
Sequence (P15559 whole entry): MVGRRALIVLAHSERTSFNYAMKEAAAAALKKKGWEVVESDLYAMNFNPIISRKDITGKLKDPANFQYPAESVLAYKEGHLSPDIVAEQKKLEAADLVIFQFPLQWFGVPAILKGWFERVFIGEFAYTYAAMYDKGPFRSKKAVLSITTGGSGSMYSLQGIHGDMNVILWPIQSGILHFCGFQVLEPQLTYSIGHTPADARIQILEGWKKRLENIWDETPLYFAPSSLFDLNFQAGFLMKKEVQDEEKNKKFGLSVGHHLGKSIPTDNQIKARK
measured endpoint: NADPH Dep. (NADPH depletion at 90 minutes) (%)

a: CCn1cc(C(=O)O)c(=O)c2cc(F)c(N3CCN(C(=O)OCc4cn(C)c5c4C(=O)C(OC)=CC5=O)CC3)cc21
b: CCn1cc(C(=O)O)c(=O)c2cc(F)c(N3CCN(C(=O)OCc4c(C(=O)OC)c5c(n4C)C(=O)C=C(OC)C5=O)CC3)cc21
Between these two entries, a and b , state which has the higher NADPH Dep. (NADPH depletion at 90 minutes). Answer format: the label of the selected item. a
(a: 85.2%, b: 17.4%)
